- Assay protocol: in vitro
- Applied conditions: human
pIC50: −log10 of the molar value.
Endpoint label: pIC50

// query Answer with reported pIC50 of O=C(CS)Nc1ccc(Cl)c(Cl)c1 [Compound 4, N‐(3,4‐dichlorophenyl) mercaptoacetamide]
// result < 4.00
